Data origin: ChEMBL document CHEMBL5291721

# measured on: D(4) dopamine receptor (Homo sapiens, UniProt P21917)
# Sequence (P21917 whole entry): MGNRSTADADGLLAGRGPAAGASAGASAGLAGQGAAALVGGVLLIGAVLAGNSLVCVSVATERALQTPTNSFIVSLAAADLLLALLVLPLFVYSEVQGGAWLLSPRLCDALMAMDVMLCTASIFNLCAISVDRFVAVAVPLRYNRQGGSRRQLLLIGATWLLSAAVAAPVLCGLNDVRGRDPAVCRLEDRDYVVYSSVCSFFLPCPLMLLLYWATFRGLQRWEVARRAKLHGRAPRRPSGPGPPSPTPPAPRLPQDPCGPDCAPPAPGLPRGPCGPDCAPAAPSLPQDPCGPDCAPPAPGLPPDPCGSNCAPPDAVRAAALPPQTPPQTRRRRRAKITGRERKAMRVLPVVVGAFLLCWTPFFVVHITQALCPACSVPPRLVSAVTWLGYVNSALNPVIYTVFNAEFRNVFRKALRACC

# compound, measured on, AC50
measured = [
    ("O=C(/C=C/c1cccc(S(=O)(=O)Nc2ccccc2)c1)NO", "D(4) dopamine receptor (Homo sapiens, UniProt P21917)", "> 10 µM"),
    ("O=C(O)Cc1ccccc1Oc1ccc(Cl)cc1Cl", "D(4) dopamine receptor (Homo sapiens, UniProt P21917)", "> 10 µM"),
    ("CCCCOc1ccc(C(=O)CCN2CCCCC2)cc1", "D(4) dopamine receptor (Homo sapiens, UniProt P21917)", "4.11 µM"),
    ("Cc1ccnc2c1NC(=O)c1cccnc1N2C1CC1", "D(4) dopamine receptor (Homo sapiens, UniProt P21917)", "> 10 µM"),
    ("CN(CCOc1ccc(CC2SC(=O)NC2=O)cc1)c1ccccn1 (stereo not given)", "D(4) dopamine receptor (Homo sapiens, UniProt P21917)", "> 10 µM"),
]
